These entries and their values trace back to patent US20230192860A1.

# assay system: T1, hVISTA-ECD 6-His tag (human, UniProt Q9H7M9 33-193)
# T1 construct: also called monovalent hVISTA-ECD; human VISTA
# T1 sequence (Q9H7M9 other isoform, or with tags, fused parts or gaps limits assumed): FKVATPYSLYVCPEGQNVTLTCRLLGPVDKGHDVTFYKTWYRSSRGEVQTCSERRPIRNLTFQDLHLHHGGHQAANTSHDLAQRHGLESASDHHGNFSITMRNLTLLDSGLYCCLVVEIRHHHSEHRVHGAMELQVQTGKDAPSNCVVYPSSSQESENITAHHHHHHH
# assay procedure: SPR 37 C, Ab on Protein A, pH 6.0
parameter: pKd
Units for pKd: none; it is -log10 of a concentration expressed in mol/L.

Answered cases to consult:
INSERT INTO measurements (binder, parameter, measurement) VALUES
  ('P1-077851 (P1-068744 E100S E102Y) (antibody, V domains shown) VH: QVQLVESGGGVVQPGRSLRLSCAASGFTFSEYAMHWVRQAPGKGLEWVAHIWYDGSNKYEADSVKGRFTISRDNSKNTLYLQMNSLRAEDTAVYYCARDSGFYSSYYFDYWGQGTLVTVSS VL: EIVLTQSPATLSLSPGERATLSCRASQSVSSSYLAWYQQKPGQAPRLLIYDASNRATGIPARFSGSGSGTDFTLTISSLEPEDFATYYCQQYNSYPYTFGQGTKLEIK', 'pKd', 6.66),
  ('P1-077837 (P1-068744 H50I) (antibody, V domains shown) VH: QVQLVESGGGVVQPGRSLRLSCAASGFTFSEYAMHWVRQAPGKGLEWVAIIWYDGSNKYEADSVKGRFTISRDNSKNTLYLQMNSLRAEDTAVYYCARDSGFYESYYFDEWGQGTLVTVSS VL: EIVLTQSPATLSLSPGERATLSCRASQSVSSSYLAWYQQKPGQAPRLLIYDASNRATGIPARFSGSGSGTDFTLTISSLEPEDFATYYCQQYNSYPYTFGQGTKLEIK', 'pKd', 8.60);

Read the next record carefully.
# input What pKd value was documented for this binder, P1-077855 (P1-068744 E31S E59Y) (antibody, V domains shown) VH: QVQLVESGGGVVQPGRSLRLSCAASGFTFSSYAMHWVRQAPGKGLEWVAHIWYDGSNKYYADSVKGRFTISRDNSKNTLYLQMNSLRAEDTAVYYCARDSGFYESYYFDEWGQGTLVTVSS VL: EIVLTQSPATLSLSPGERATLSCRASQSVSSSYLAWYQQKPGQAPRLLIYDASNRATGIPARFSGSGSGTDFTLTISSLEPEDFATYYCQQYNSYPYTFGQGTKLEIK ?
# output 7.44
